System: Prostatic cancer cells, PC-3
Assay: Cancer cell inhibitory (growth suppressive) action against prostatic cancer cells, CellTiter-Glo viable cell count
Assay type: cell-based
Details: PC-3, 10 μg/mL, 24 hours
Recorded measurements of Cancer cell growth rate (%), one per entry

Lab book: Cancer cell growth rate (%) of CCCN1\C(=C/C=C/C=C/C2=[N+](CCC)c3ccccc3C2(C)C)C(C)(C)c2ccccc21 [Compound 27] noted as 7.7%

Lab note: measured Cancer cell growth rate (%) of CCN1/C(=C\C(C)=C\c2sc3ccccc3[n+]2CC)Sc2ccccc21 [Compound 5] was 15.0%

Record summary for CCN1/C(=C\C(C)=C\c2sc3c4ccccc4ccc3[n+]2CC)Sc2c1ccc1ccccc21 [Compound 11] : reported Cancer cell growth rate (%) = 4.3%

The reported Cancer cell growth rate (%) of the compound CN1/C(=C/C=C2\CCCC(/C=C/C3=[N+](C)c4ccc5ccccc5c4C3(C)C)=C2Cl)C(C)(C)c2c1ccc1ccccc21 [Compound 49] was 5.3%

Value of Cancer cell growth rate (%) reported for the compound CCN1/C(=C\C=C\c2ccc3ccccc3[n+]2CC)C=Cc2ccccc21.[I-] [Compound 47] is 13.8%

Notebook: CCC(/C=C1\Sc2ccccc2N1CC)=C\c1sc2ccccc2[n+]1CC.[I-] [Compound 4] , Cancer cell growth rate (%) read as 19.5%

For record CCN1C=C/C(=C/C=C/c2cc[n+](CC)c3ccccc23)c2ccccc21 [Compound 46] the listed Cancer cell growth rate (%) is 17.7%

* * *

System: Human chronic myelocytic leukemia cells, K562, ALDH (−) fraction (general cancer cells)
Assay: Cancer stem-cell selective inhibitory action against chronic myelocytic leukemia cells, ALDH (−) fraction
Type: cell-based
Settings: K562 ALDH(−), 10 μg/ml, 24 hours
Assay endpoint: ALDH(−) growth rate

CCN1/C(=C\C=C\C2=[N+](CC)c3ccccc3C2(C)C)C(C)(C)c2ccccc21.[I-] :: 0.29
CCN1/C(=C/C=C2\CCCC(/C=C/C3=[N+](CC)c4ccc(OC)cc4C34CCCCC4)=C2Oc2ccc(C(c3ccccc3)c3ccccc3)cc2)C2(CCCCC2)c2cc(OC)ccc21 :: 0.85
CCN1/C(=C\C=C\c2oc3ccccc3[n+]2CC)Oc2ccccc21 :: 0.49
CCN1/C(=C/C=C/C=C/C=C/c2oc3ccccc3[n+]2CC)Oc2ccccc21 :: 1.00

Okay, next one:
GET /values?item= CCN1C=C/C(=C/C=C/c2sc3ccccc3[n+]2CC)c2ccccc21.[I-] &system= Human chronic myelocytic leukemia cells, K562, ALDH (−) fraction (general cancer cells) returns ALDH(−) growth rate: 0.67

* * *

Test system: Human chronic myelocytic leukemia cells, K562, ALDH (+) fraction (cancer stem cells)
Experiment: Cancer stem-cell selective inhibitory action against chronic myelocytic leukemia cells, ALDH (+) fraction
Type: cell-based
Details: K562, 10 μg/ml, 24 hours
Protocol: Human chronic myelocytic leukemia cells, K562, were pre-cultured in RPMI1640 medium containing 10% FBS at 37° C. in a 5% CO2 ambient. […] The cultured cells were analyzed for viable cell count according to CellTiter-Glo Luminescent Cell Viability Assay (manufactured by Promega KK.). […] Further, the growth suppressive effect of cancer stem cells was evaluated based on the following criteria. […]
Assay endpoint: ALDH(+)/ALDH(−)
Please give only the number in your answer, with no unit.

CC(C)CCN1/C(=C/C=C/C=C/C2=[N+](CCC(C)C)c3ccc4ccccc4c3C2(C)C)C(C)(C)c2c1ccc1ccccc21 [Compound 55] :: 0.33
CCN1/C(=C\C=C\C2=[N+](CC)c3ccccc3C2(C)C)C(C)(C)c2ccccc21.[I-] [Compound 22] :: 0.75
CCN1C=C/C(=C/C=C/c2sc3ccccc3[n+]2CC)c2ccccc21.[I-] [Compound 34] :: 0.72
CN1/C(=C/C=C2\CCCC(/C=C/C3=[N+](C)c4ccccc4C3(C)C)=C2Sc2ccccc2)C(C)(C)c2ccccc21 [Compound 59] :: 0.22
CCCCCCCN1/C(=C\C=C\c2oc3ccccc3[n+]2CCCCCCC)Oc2ccccc21 [Compound 18] :: 0.29
CCC(=C\c1oc2ccc(-c3ccccc3)cc2[n+]1CC)/C=C1/Oc2ccc(-c3ccccc3)cc2N1CC [Compound 57] :: 0.81
CCN1C=C/C(=C/C=C/c2oc3ccccc3[n+]2CC)c2ccccc21 [Compound 35] :: 0.69
CCC(/C=C1\Oc2ccccc2N1CC)=C\c1oc2ccccc2[n+]1CC [Compound 56] :: 0.65
CCCN1\C(=C/C=C/C=C/C2=[N+](CCC)c3ccccc3C2(C)C)C(C)(C)c2ccccc21 [Compound 27] :: 0.56
CCCC[N+]1=C(/C=C/C2=C(Cl)C(=C/C=C3/N(C)c4ccccc4C3(C)C)/CCC2)C(C)(C)c2c1ccc1ccccc21 [Compound 51] :: 0.27

Lab note: CCN1/C(=C\C=C\c2oc3ccccc3[n+]2CC)Oc2ccccc21 [Compound 14] gave ALDH(+)/ALDH(−) of 0.77

ALDH(+)/ALDH(−) for CCN1/C(=C/C=C/C=C/C=C/C2=[N+](CC)c3ccccc3C2(C)C)C(C)(C)c2ccccc21 [Compound 32] is 0.32

* * *

Test: Measurement of fluorescent property of compound
Format: physicochemical
Conditions: 5 μM DMSO solution
Assay endpoint: Fluorescence wavelength λem (nm)
Entry rule: numbers only, all in nm.

// worked examples, Fluorescence wavelength λem included
CN1/C(=C/C=C/C=C/C2=[N+](C)c3ccc4ccccc4c3C2(C)C)C(C)(C)c2cc(Cl)ccc21 :: 696
CCC(=C\c1sc2c3ccccc3ccc2[n+]1CC)/C=C1/Sc2c(ccc3ccccc23)N1CC.[I-] :: 381

According to the records, this compound CCN1C=C/C(=C/C=C/c2ccc3ccccc3[n+]2CC)c2ccccc21.[I-] displays Fluorescence wavelength λem of 681

Entry CCN1C=C/C(=C/C=C/c2oc3ccccc3[n+]2CC)c2ccccc21 ; Fluorescence wavelength λem = 620

* * *

Measured ALDH(+)/ALDH(−) of individual entries
System: Human chronic myelocytic leukemia cells, K562, ALDH (+) fraction (cancer stem cells)
Assay: Cancer stem-cell selective inhibitory action against chronic myelocytic leukemia cells, ALDH (+) fraction
Type: cell-based
Conditions: K562, 10 μg/ml, 24 hours
Protocol: Human chronic myelocytic leukemia cells, K562, were pre-cultured in RPMI1640 medium containing 10% FBS at 37° C. in a 5% CO2 ambient. […] The cultured cells were analyzed for viable cell count according to CellTiter-Glo Luminescent Cell Viability Assay (manufactured by Promega KK.). […] Further, the growth suppressive effect of cancer stem cells was evaluated based on the following criteria. […]
# answer = number (no unit)

Some solved entries appear below for comparison.
CCN1\C(=C/C=C/C=C/c2oc3ccccc3[n+]2CC)Oc2ccccc21 :: 0.69
CCN1/C(=C/C=C2\CCCC(/C=C/C3=[N+](CC)c4ccc(OC)cc4C34CCCCC4)=C2Oc2ccc(C(c3ccccc3)c3ccccc3)cc2)C2(CCCCC2)c2cc(OC)ccc21 :: 0.82
CCN1/C(=C\C=C\c2sc3ccccc3[n+]2CC)Sc2ccccc21 :: 0.87

Query CCCCN1/C(=C/C=C2\CCCC(/C=C/C3=[N+](CCCC)c4ccccc4C3(C)C)=C2c2ccccc2)C(C)(C)c2ccccc21 yields ALDH(+)/ALDH(−) of 0.50

Consider CCN1/C(=C\C(C)=C\c2sc3ccccc3[n+]2CC)Sc2ccccc21 . Its measured ALDH(+)/ALDH(−) is 0.79

Consider CN1/C(=C/C=C/C=C/C2=[N+](C)c3ccc4ccccc4c3C2(C)C)C(C)(C)c2cc(Cl)ccc21 . Its measured ALDH(+)/ALDH(−) is 0.34

# ALDH(+)/ALDH(−) of CCN1/C(=C/C=C/C=C/C=C/c2oc3ccccc3[n+]2CC)Oc2ccccc21 = 0.84

* * *

Fluorescence wavelength λem for assorted compounds
Assay: Measurement of fluorescent property of compound
Assay type: physicochemical
Conditions: 5 μM DMSO solution
State the answer as a number, implicitly in nm.

Please review the following examples before continuing.
CCOC(=O)C1(C(=O)OCC)CC(/C=C/C2=[N+](CC)c3ccccc3C2(C)C)=CC(=C/C=C2/N(CC)c3ccccc3C2(C)C)/C1 :: 770
CCN1/C(=C\C(C)=C\c2sc3ccccc3[n+]2CC)Sc2ccccc21 :: 628
CCN1/C(=C\C(C)=C\c2sc3c4ccccc4ccc3[n+]2CC)Sc2c1ccc1ccccc21 :: 469

Measured Fluorescence wavelength λem of CCN1/C(=C\C=C\C2=[N+](CC)c3ccccc3C23CCCCC3)C2(CCCCC2)c2ccccc21 : 569

// Fluorescence wavelength λem lookup, compound = CN1\C(=C/C=C/C=C/C2=[N+](C)c3ccc4ccccc4c3C2(C)C)C(C)(C)c2c1ccc1ccccc21 , result: 710

// recorded Fluorescence wavelength λem for CCN1\C(=C/C=C/C=C/c2oc3ccccc3[n+]2CC)Oc2ccccc21 : 614

Fluorescence wavelength λem for CN1/C(=C/C=C2\CCCC(/C=C/C3=[N+](C)c4ccccc4C3(C)C)=C2Sc2ccccc2)C(C)(C)c2ccccc21 is 520

Please fill in: Fluorescence wavelength λem reported for CCN1/C(=C\C=C\c2oc3ccccc3[n+]2CC)Oc2ccccc21 = 510

Given item CCCCCCCN1/C(=C\C=C\c2oc3ccccc3[n+]2CCCCCCC)Oc2ccccc21 , the value recorded as its Fluorescence wavelength λem is 510

The compound CC(C)CCN1/C(=C/C=C/C=C/C2=[N+](CCC(C)C)c3ccc4ccccc4c3C2(C)C)C(C)(C)c2c1ccc1ccccc21 showed Fluorescence wavelength λem equal to 715

// CN1/C(=C/C=C2\CCCC(/C=C/C3=[N+](C)c4ccc5ccccc5c4C3(C)C)=C2Cl)C(C)(C)c2c1ccc1ccccc21 : Fluorescence wavelength λem value = 831

The compound listed as CCC(=C\c1sc2ccc3ccccc3c2[n+]1CC)/C=C1/Sc2ccc3ccccc3c2N1CC shows Fluorescence wavelength λem equal to 615

response.value for CCCCN1/C(=C/C=C2\CCCC(/C=C/C3=[N+](CCCC)c4ccccc4C3(C)C)=C2c2ccccc2)C(C)(C)c2ccccc21 (field: Fluorescence wavelength λem) = 800

Field Fluorescence wavelength λem (entry CCCN1\C(=C/C=C/C=C/C2=[N+](CCC)c3ccccc3C2(C)C)C(C)(C)c2ccccc21 ) reads 675

Lab note: CCN1/C(=C\C=C\c2ccc3ccccc3[n+]2CC)C=Cc2ccccc21.[I-] gave Fluorescence wavelength λem of 637
